assay-overview: pH in aqueous solution
Format: physicochemical
condition-set: (native) pH of the aqueous solution of the salt
Where a name gives a salt, the structure may show the parent alone.
assay-readout: pH in aqueous solution

(Q) Give its pH in aqueous solution value. Item: CN[C@H]1CC[C@@H](c2ccc(Cl)c(Cl)c2)c2ccccc21 [sertraline benzoic acid salt, Benzoic Acid Salt of Sertraline]
(A) 5.2

(Q) Give its pH in aqueous solution value. Item: CN[C@H]1CC[C@@H](c2ccc(Cl)c(Cl)c2)c2ccccc21 [sertraline fumaric acid salt, Fumaric Acid Salt of Sertraline]
(A) 3.4

(Q) Give its pH in aqueous solution value. Item: CN[C@H]1CC[C@@H](c2ccc(Cl)c(Cl)c2)c2ccccc21 [sertraline p-toluenesulfonic acid salt]
(A) 4.1

====

assay-overview: pH in aqueous solution
Type: physicochemical
condition-set: (native) pH of the aqueous solution of the salt
Where a name gives a salt, the structure may show the parent alone.
assay-readout: pH in aqueous solution

1: CN[C@H]1CC[C@@H](c2ccc(Cl)c(Cl)c2)c2ccccc21 [sertraline (−)-camphor-10-sulfonic acid salt]
2: CN[C@H]1CC[C@@H](c2ccc(Cl)c(Cl)c2)c2ccccc21 [sertraline L-tartaric acid salt, L-Tartaric Acid Salt of Sertraline]
(Q) When the recorded pH in aqueous solution values are compared, which is smaller: that of 1 or that of 2 ? Bench note: the answer is the label of the chosen record.
(A) 2
